These entries and their values trace back to ChEMBL document CHEMBL1772971.

- System: Brain
- TEST DETAILS: Ratio of drug level in brain after 2 mins to brain after 60 mins in ddY mouse […] at 185 to 370 kBq, iv
- Type: ADME, organism-based
- CONDITION: in vivo
Ratio values for the molecules below.
READOUT KIND: Ratio

INSERT INTO results (smi, reported) VALUES
  ('CN(C)c1ccc(-c2cc3cc(OCCOCCOCC[18F])ccc3o2)cn1', 2.11),
  ('CNc1ccc(-c2cc3cc(OCCOCCOCC[18F])ccc3o2)cc1', 2.11),
  ('CNc1ccc(/C=C/c2ccc(OCCOCCOCC[18F])nc2)cc1', 3.8),
  ('CN(C)c1ccc(-c2cc3cc(OCCOCCOCC[18F])ccc3o2)cc1', 1.02),
  ('CNc1ccc(/C=C/c2ccc(OCCOCCOCC[18F])cc2)cc1', 4.8),
  ('CNc1ccc(-c2cc3cc(OCCOCCOCC[18F])ccc3o2)cn1', 2.34);
